Answer each item with its documented Fold reversion.
Tested on: DC3F/AD
protocolDescription: In vitro activity in DC-3F/AD cell line Ratio of IC50(actinomycin D alone) / IC50(actinomycin D + modulator) at a concentration of 10 uM

smiles=C=CCNc1nc(NCC=C)nc(N2CCN(CC3c4ccccc4CCc4ccccc43)CC2)n1 targetundertest=DC3F/AD readoutkind="Fold reversion" observedmeasurement=1832

Quick request: Fold reversion for each listed item, please.
1. C=CCNc1nc(NCC=C)nc(N2CCN(C3c4ccccc4CCc4ccccc43)CC2)n1
2. C=CCNc1nc(NCC=C)nc(N2CCN(NCC3c4ccccc4CCc4ccccc43)CC2)n1

455
1159

----------
Exercise: for every item that follows, state its recorded Fold reversion.
Test system: DC3F/AD
protocolDescription: In vitro activity in DC-3F/AD cell line Ratio of IC50(actinomycin D alone) / IC50(actinomycin D + modulator) at a concentration of 10 uM

# batch size: 3; output Fold reversion per entry
1. C=CCNc1nc(NCC=C)nc(N2CCN(CCCC(c3ccc(F)cc3)c3ccc(F)cc3)CC2)n1
2. C=CCNc1nc(NCC=C)nc(N2CCC(NCC(c3ccc(F)cc3)C3CCCCC3)CC2)n1 (stereo not drawn)
3. C=CCNc1cc(N2CCC(NC(c3ccc(F)cc3)c3ccc(F)cc3)CC2)nc(NCC=C)n1.Cl.Cl

1. <25
2. <25
3. <25

----------
Tested on: DC3F/AD
protocolDescription: Percent of cell viability remaining after incubating the cells with the modulator alone a concentration of 5 uM
Type: functional, Cricetulus griseus
readoutKind: Viability (%)
Answers are plain numbers, in %.

Example cases with answers are listed next.
molecule=C=CCNc1nc(NCC=C)nc(N2CCN(C(c3ccc(Cl)cc3)c3ccc(Cl)cc3)CC2)n1.CS(=O)(=O)O unitssymbol=% observedmeasurement=81
molecule="C=CCNc1nc(NCC=C)nc(N2CCC(NCC3c4ccccc4COc4ccccc43)CC2)n1 (stereo not drawn)" unitssymbol=% observedmeasurement=82

// below: Viability requested for another molecule
Item "C=CCNc1nc(NCC=C)nc(N2CCC(NCC(c3ccc(F)cc3)c3ccc(F)cc3)CC2)n1" was tested on DC3F/AD; the reported Viability is 78

----------
Test system: DC3F/AD
protocolDescription: Percent of cell viability remaining after incubating the cells with the modulator alone a concentration of 5 uM
Assay type: functional, Cricetulus griseus
readoutKind: Viability (%)
Give bare numbers, in %.

molecule=C=CCNc1nc(NCC=C)nc(NN2CCN(C(c3ccc(F)cc3)c3ccc(F)cc3)CC2)n1 readoutkind=Viability unitssymbol=% observedmeasurement=82
molecule=C=CCNc1nc(NCC=C)nc(N2CCC(NCC3c4ccccc4-c4ccccc43)CC2)n1 readoutkind=Viability unitssymbol=% observedmeasurement=78
molecule=C/C=C/CNc1nc(NC/C=C/C)nc(N2CCC(NC(c3ccc(F)cc3)c3ccc(F)cc3)CC2)n1.Cl.Cl readoutkind=Viability unitssymbol=% observedmeasurement=82

Continue with the next molecule.
Entry C=CCNc1nc(NCC=C)nc(N2CCC(NCC(c3cc(OC)cc(OC)c3)c3ccccc3C)CC2)n1 (centres undefined) , Viability reported as 80
